Biological target: DNA repair protein RAD51 homolog 1 (Homo sapiens) (UniProt Q06609)
Sequence (Q06609 whole entry, the tested form may be a part): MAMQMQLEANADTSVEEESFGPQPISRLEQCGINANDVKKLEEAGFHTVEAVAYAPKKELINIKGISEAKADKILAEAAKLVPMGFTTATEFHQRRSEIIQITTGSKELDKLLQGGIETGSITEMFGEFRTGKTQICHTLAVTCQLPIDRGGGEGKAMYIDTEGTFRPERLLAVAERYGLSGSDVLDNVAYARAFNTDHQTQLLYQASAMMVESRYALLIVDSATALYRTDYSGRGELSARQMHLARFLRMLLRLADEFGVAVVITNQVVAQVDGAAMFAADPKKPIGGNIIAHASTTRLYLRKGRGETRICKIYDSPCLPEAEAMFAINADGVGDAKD
Assay: Binding affinity to RAD51 (158 to 180 residues) (unknown origin) assessed as binding constant by fluorescence spectroscopy
Where a SMILES comes first, the peptide text is derived from it. The star is where a group is joined. X1 = O=C(c1cncc(C(F)(F)F)c1)*
Measurement name: Binding constant

q: Specify measured Binding constant for CC(C)C[C@H](NC(=O)[C@H](Cc1ccc(O)cc1)NC(=O)c1cncc(C(F)(F)F)c1)C(=O)N[C@@H](CCC(N)=O)C(=O)N[C@@H](CC(N)=O)C(=O)N[C@H](C(=O)N[C@@H](Cc1ccccc1)C(=O)N[C@@H](CCCCN)C(=O)N[C@H](C(=O)N[C@@H](CO)C(=O)N[C@@H](CCCCN)C(=O)N[C@@H](CCCNC(=N)N)C(=O)N[C@@H](CCC(N)=O)C(=O)N[C@@H](CO)C(=O)N[C@@H](Cc1ccccc1)C(=O)N[C@@H](C)C(=O)N1CCC[C@H]1C(N)=O)C(C)C)[C@@H](C)O (X1-YLQNTFKVSKRQSFAP-NH2) .
a: 1.56 10^4/M
